Source of measurements: paper PMC4788435

// ratio to parent lookup, one value per entry
B1: human NEK8-GFP wild type [human] / Flag-ANKS6 [not stated] (parent complex)
chain 1: MEKYERIRVVGRGAFGIVHLCLRKADQKLVIIKQIPVEQMTKEERQAAQNECQVLKLLNHPNVIEYYENFLEDKALMIAMEYAPGGTLAEFIQKRCNSLLEEETILHFFVQILLALHHVHTHLILHRDLKTQNILLDKHRMVVKIGDFGISKILSSKSKAYTVVGTPCYISPELCEGKPYNQKSDIWALGCVLYELASLKRAFEAANLPALVLKIMSGTFAPISDRYSPELRQLVLSLLSLEPAQRPPLSHIMAQPLCIRALLNLHTDVGSVRMRRAEKSVAPSNTGSRTTSVRCRGIPRGPVRPAIPPPLSSVYAWGGGLGTPLRLPMLNTEVVQVAAGRTQKAGVTRSGRLILWEAPPLGAGGGSLLPGAVEQPQPQFISRFLEGQSGVTIKHVACGDFFTACLTDRGIIMTFGSGSNGCLGHGSLTDISQPTIVEALLGYEMVQVACGASHVLALSTERELFAWGRGDSGRLGLGTRESHSCPQQVPMPPGQEAQRVVCGIDSSMILTVPGQALACGSNRFNKLGLDHLSLGEEPVPHQQVEEALSFTLLGSAPLDQEPLLSIDLGTAHSAAVTASGDCYTFGSNQHGQLGTNTRRGSRAPCKVQGLEGIKMAMVACGDAFTVAIGAESEVYSWGKGARGRLGRRDEDAGLPRPVQLDETHPYTVTSVSCCHGNTLLAVRSVTDEPVPP
chain 2: MGEGGLPPAFQLLLRACDQGDTETARRLLEPGAAEPAERGAEPEAGAEPAGAEVAGPGAAAAGAVGAPVPVDCSDEAGNTALQFAAAGGHEPLVRFLLRRGASVNSRNHYGWSALMQAARFGHVSVAHLLLDHGADVNAQNRLGASVLTVASRGGHLGVVKLLLEAGAFVDHHHPSGEQLGLGGSRDEPLDITALMAAIQHGHEAVVRLLMEWGADPNHAARTVGWSPLMLAALTGRLGVAQQLVEKGANPDHLSVLEKTAFEVALDCKHRDLVDYLDPLTTVRPKTDEEKRRPDIFHALKMGNFQLVKEIADEDPSHVNLVNGDGATPLMLAAVTGQLALVQLLVERHADVDKQDSVHGWTALMQATYHGNKEIVKYLLNQGADVTLRAKNGYTAFDLVMLLNDPDTELVRLLASVCMQVNKDKGRPSHQPPLPHSKVRQPWSIPVLPDDKGGLKSWWNRMSNRFRKLKLMQTLPRGLSSNQPLPFSDEPEPALDSTMRAAPQDKTSRSALPDAAPVTKDNGPGSTRGEKEDTLLTTMLRNGAPLTRLPSDKLKAVIPPFLPPSSFELWSSDRSRTRHNGKADPMKTALPQRASRGHPVGGGGTDTTPVRPVKFPSLPRSPASSANSGNFNHSPHSSGGSSGVGVSRHGGELLNRSGGSIDNVLSQIAAQRKKAAGLLEQKPSHRSSPVGPAPGSSPSELPASPAGGSAPVGKKLETSKRPPSGTSTTSKSTSPTLTPSPSPKGHTAESSVSSSSSHRQSKSSGGSSSGTITDEDELTGILKKLSLEKYQPIFEEQEVDMEAFLTLTDGDLKELGIKTDGSRQQILAAISELNAGKGRERQILQETIHNFHSSFESSASNTRAPGNSPCA

- Variants of: B1
- test method notes: co-immunoprecipitation (anti-GFP IP, western blot band quantification); HEK293T cell lysates co-expressing NEK8-GFP and Flag-ANKS6; parent: 1; read off a plot

Input line: Suppose we examine the variant chain 1 H425Y ; what ratio to parent value has been reported?
Output line: ~1

Input line: Suppose we examine the variant chain 1 R602W ; what ratio to parent value has been reported?
Output line: ~0.95

Input line: Suppose we examine the variant chain 1 T87A ; what ratio to parent value has been reported?
Output line: ~0.42

Input line: Suppose we examine the variant chain 1 G580S ; what ratio to parent value has been reported?
Output line: ~0.97
